Assign IC50 to each entry below.
Test system: Leishmania donovani
Assay: Antimicrobial activity against Leishmania donovani MHOM-ET-67/L82 amastigotes after 72 hrs by Alamar blue assay
Assay type: functional, organism-based
Settings: MHOM-ET-67/L82, 72 h
Your answer should be a plain number; it is taken to be in µM.

Indicate its recorded IC50; the compound in question is COc1ccc(N2CCN(CCCn3ccnc3[N+](=O)[O-])CC2)cc1.Cl.Cl
186

Query IC50 for Cl.Cl.Cl.Cl.O=[N+]([O-])c1ncn(CCCN2CCN(Cc3ccc(Cl)c(Cl)c3)CC2)n1
23.9

Look up IC50 of Cl.Cl.N#Cc1ccccc1N1CCN(CCCn2cnc([N+](=O)[O-])n2)CC1 and report it.
180

Give the reported IC50 for this compound. O=[N+]([O-])c1ncn(CCCNc2nc3ccc(Cl)cc3s2)n1
4.49

Answer with the recorded IC50 for the compound listed here: O=[N+]([O-])c1nccn1CCCNc1nc2ccc(Cl)cc2s1
4.27

Tell me its IC50 given O=[N+]([O-])c1nccn1CCCNc1nc2ccccc2s1 as the entry.
11.4

Give recorded IC50. O=[N+]([O-])c1ncn(CCCCNc2nc3ccc(Cl)cc3s2)n1
4.1

###

Tested on: Trypanosoma cruzi
Test: Ratio of banznidazole IC50 to compound IC50 for Trypanosoma cruzi Tulahuen C4 amastigotes
Assay type: functional
experimental_readout: Ratio IC50
Form rule: numeric answer, no unit written next to it.

Please report the measured Ratio IC50 for O=[N+]([O-])c1ncn(CCCNc2nc3ccccc3s2)n1
3.6

Hello, please tell me recorded Ratio IC50 for this one: Cl.Cl.O=[N+]([O-])c1ncn(CCCN2CCN(c3ccccn3)CC2)n1
1.9

Supply reported Ratio IC50 belonging to this molecule: Cl.Cl.Cl.Cl.O=[N+]([O-])c1ncn(CCCN2CCN(c3ccc(Cl)c(Cl)c3)CC2)n1
32.7

Quickly give me recorded Ratio IC50 for Cl.Cl.O=[N+]([O-])c1ncn(CCCN2CCN(Cc3ccc(C(F)(F)F)cc3)CC2)n1
4.6

State its Ratio IC50 for this molecule: O=[N+]([O-])c1ncn(CCCNc2nc3ccc(Cl)cc3s2)n1
26.6

For O=[N+]([O-])c1ncn(CCCN2CCN(c3ccncc3)CC2)n1 , write its Ratio IC50.
0.2

Answer with the recorded Ratio IC50 for the molecule listed here: Cc1ccc(N2CCN(CCCn3cnc([N+](=O)[O-])n3)CC2)cc1.Cl.Cl
3.7

Identify measured Ratio IC50 corresponding to O=[N+]([O-])c1nccn1CCCNc1nc2ccc(Cl)cc2s1
0.6

For the molecule Cl.O=C(C1CC1)N1CCN(CCCn2cnc([N+](=O)[O-])n2)CC1 , give its measured Ratio IC50 value.
0.3

Respond only with Ratio IC50 recorded for COc1ccc(N2CCN(CCCn3cnc([N+](=O)[O-])n3)CC2)cc1.Cl.Cl
2.8

###

Kindly state log10(Drug metabolism) for each of the entries shown.
Assay: Prodrug conversion assessed as Trypanosoma brucei brucei recombinant his-tagged nitroreductase-mediated NADH oxidization by spectrophotometric analysis
Assay type: ADME
Settings: isolated protein
Scale: decimal log of Drug metabolism, Drug metabolism in nmol/min/mg.

State its log10(Drug metabolism): Cl.Cl.O=[N+]([O-])c1ncn(CCCCN2CCN(Cc3ccc(C(F)(F)F)cc3)CC2)n1
2.56

Quote log10(Drug metabolism) reported for O=C(Cn1ccnc1[N+](=O)[O-])NCc1ccccc1 please.
2.34

# return recorded log10(Drug metabolism) for input Cl.Cl.O=[N+]([O-])c1ncn(CCCN2CCN(Cc3ccc(C(F)(F)F)cc3)CC2)n1
2.62

Please report the measured log10(Drug metabolism) for Cl.Cl.O=[N+]([O-])c1ncn(CCCN2CCN(c3ccc(C(F)(F)F)cc3)CC2)n1
2.90

Supply reported log10(Drug metabolism) belonging to this compound: CC1CS(=O)(=O)CCN1/N=C/c1ccc([N+](=O)[O-])o1 (stereo not given)
1.87
